Values from the supplement of paper PMC7877785

assay: self-splicing fitness, log relative to wild type (ln ratio); higher = more splicing; Tetrahymena group I intron in knt gene, E. coli kanamycin selection, DiMSum; sequences stand for … in CUCUCU…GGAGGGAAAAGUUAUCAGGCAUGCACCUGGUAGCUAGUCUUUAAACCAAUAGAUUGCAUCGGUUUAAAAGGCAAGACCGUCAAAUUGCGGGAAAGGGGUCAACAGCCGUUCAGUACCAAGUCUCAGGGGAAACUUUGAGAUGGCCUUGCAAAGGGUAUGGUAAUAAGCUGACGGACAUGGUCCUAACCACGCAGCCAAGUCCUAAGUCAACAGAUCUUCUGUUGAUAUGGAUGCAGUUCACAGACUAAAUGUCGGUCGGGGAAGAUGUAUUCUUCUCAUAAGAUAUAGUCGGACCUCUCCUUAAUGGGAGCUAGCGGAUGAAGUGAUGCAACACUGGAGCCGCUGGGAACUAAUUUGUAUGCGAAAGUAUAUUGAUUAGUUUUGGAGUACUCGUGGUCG; conditions: 30 °C;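 note: selection with 25 µg/mL kanamycin versus none on LB agar overnight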
PROPERTY_MEASURED: self-splicing fitness (ln)
Give only the figure.

Examples from the recorded data:
> print(dat)
         sequence.entry  observed.measurement
1  UCCCAGCAAUAUUACGGAAA                 -2.01
2  AAGGAGCAAUAUUACGGACU                 -1.99
3  AUUUAGCAAUAUUACGCAAA                 -1.86
4  UAUUAGCAAUAUUACGGUCG                -0.442
5  ACUCAGCAAUAUUACGCAGG                 -1.99

Ask: self-splicing fitness (ln) for CUGUAGCAAUAUUACGCAGU ?
Result: -2.29

Ask: Entry under review: AACUAGCAAUAUUACGGUAC . Reported self-splicing fitness (ln)?
Result: -3.39

Ask: State the recorded self-splicing fitness (ln) for this entry: UAGUAGCAAUAUUACGCAUG
Result: -1.58

Ask: So what's the measured self-splicing fitness (ln) for this one? AAGUAGCAAUAUUACGGAUU
Result: -0.677

Ask: I have this sequence here, AAGAAGCAAUAUUACGAACC , and I need its recorded self-splicing fitness (ln).
Result: -0.581

Ask: Recorded self-splicing fitness (ln) of CCCAAGCAAUAUUACGUCGA , please.
Result: -3.92

Ask: Which self-splicing fitness (ln) is listed for GAACAGCAAUAUUACGAUGC ?
Result: -0.47

Ask: // query self-splicing fitness (ln) value for entry CGCGAGCAAUAUUACGGACU
Result: -1.82

Ask: // returns reported self-splicing fitness (ln) for input AUUGAGCAAUAUUACGCAAU
Result: -3.28

Ask: Would you kindly share the measured self-splicing fitness (ln) for GAACAGCAAUAUUACGCAAA ?
Result: -1.37

Ask: What does the record list as self-splicing fitness (ln) for AGGUAGCAAUAUUACGUGGA ?
Result: -3.37

Ask: What value of self-splicing fitness (ln) has been reported for the following sequence? CCACAGCAAUAUUACGUCCG
Result: -0.456

Ask: For GGCGAGCAAUAUUACGGCUA , what is its reported self-splicing fitness (ln)?
Result: -0.343

Ask: # input sequence: GCCUAGCAAUAUUACGGCCU ; wanted: its self-splicing fitness (ln)
Result: -2.48

Ask: Dear colleague, I am looking for the recorded self-splicing fitness (ln) of the following sequence: AGGCAGCAAUAUUACGUACG
Result: -1.22

Ask: Report self-splicing fitness (ln) for AGUUAGCAAUAUUACGGACA please.
Result: -0.912

Ask: Look up self-splicing fitness (ln) for this sequence: ACAUAGCAAUAUUACGUCCA
Result: -1.24

Ask: Entry under review: UGCUAGCAAUAUUACGCCGG . Reported self-splicing fitness (ln)?
Result: -0.985

Ask: Consider the sequence shown here: GUGAAGCAAUAUUACGAGUU What is its recorded self-splicing fitness (ln)?
Result: -2.5

###

self-splicing fitness (ln) listing for selected sequences.
assay: self-splicing fitness, log relative to wild type (ln ratio); higher = more splicing; Tetrahymena group I intron in knt gene, E. coli kanamycin selection, DiMSum; sequences stand for … in CUCUCU…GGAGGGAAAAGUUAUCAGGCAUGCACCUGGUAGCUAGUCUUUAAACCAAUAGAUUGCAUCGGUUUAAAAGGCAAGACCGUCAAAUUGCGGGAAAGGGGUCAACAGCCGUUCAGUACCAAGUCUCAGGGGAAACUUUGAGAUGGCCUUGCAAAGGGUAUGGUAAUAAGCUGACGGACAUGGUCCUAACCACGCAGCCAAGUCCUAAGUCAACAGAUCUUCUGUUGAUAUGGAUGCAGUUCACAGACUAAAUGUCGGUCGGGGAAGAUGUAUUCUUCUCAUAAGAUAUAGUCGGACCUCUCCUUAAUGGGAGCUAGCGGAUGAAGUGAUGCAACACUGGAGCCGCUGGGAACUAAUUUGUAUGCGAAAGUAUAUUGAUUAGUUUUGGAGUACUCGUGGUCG; conditions: 30 °C
# output: bare number, no unit

> print(dat)
          sequence.entry  observed.measurement
 1  ACGUAGCAAUAUUACGUUCU                  -2.3
 2  GUGAAGCAAUAUUACGGAAG                 -1.94
 3  GCAAAGCAAUAUUACGUAAA                -0.824
 4  UCACAGCAAUAUUACGGUUG                 -1.41
 5  AUACAGCAAUAUUACGGACA                 -1.55
 6  AUUGAGCAAUAUUACGGCCA                 -2.29
 7  GCUCAGCAAUAUUACGAGGC                 -4.34
 8  GAGAAGCAAUAUUACGCUUA                 -2.41
 9  AGGCAGCAAUAUUACGCAAC                 -0.42
10  AGCAAGCAAUAUUACGGUUC                 -3.75

Ask: Please report the recorded self-splicing fitness (ln) for AGAAAGCAAUAUUACGGUAA .
Result: -2.66

Ask: Item GCGGAGCAAUAUUACGUAAA has what recorded self-splicing fitness (ln)?
Result: -3.53

Ask: GET /values?readout=self-splicing fitness (ln)&item= GGGCAGCAAUAUUACGAGAC
Result: -3.12

Ask: Field request: self-splicing fitness (ln) | item: GCCCAGCAAUAUUACGGCCA
Result: -2.6

Ask: Query (sequence): GCGGAGCAAUAUUACGAUAC ; field requested: self-splicing fitness (ln)
Result: -1.78

Ask: Quick one: self-splicing fitness (ln) for UACGAGCAAUAUUACGAACU ?
Result: -3.46

Ask: For GGAAAGCAAUAUUACGCGUG , what is its reported self-splicing fitness (ln)?
Result: -0.941

Ask: Using the record for GGGUAGCAAUAUUACGUCGC , report its self-splicing fitness (ln).
Result: -1.04

Ask: Given the entry UGAGAGCAAUAUUACGCUGC , report its measured self-splicing fitness (ln).
Result: -2.67

Ask: Record request: self-splicing fitness (ln) value, item GCAGAGCAAUAUUACGCGUA
Result: -2.94

Ask: Please report the recorded self-splicing fitness (ln) for CCCUAGCAAUAUUACGGUCA .
Result: -2.57

Ask: Field request: self-splicing fitness (ln) | item: ACAUAGCAAUAUUACGCUGA
Result: -1.47

###

test: self-splicing fitness, log relative to wild type (ln ratio); higher = more splicing; Tetrahymena group I intron in knt gene, E. coli kanamycin selection, DiMSum; sequences stand for … in CUCUCU…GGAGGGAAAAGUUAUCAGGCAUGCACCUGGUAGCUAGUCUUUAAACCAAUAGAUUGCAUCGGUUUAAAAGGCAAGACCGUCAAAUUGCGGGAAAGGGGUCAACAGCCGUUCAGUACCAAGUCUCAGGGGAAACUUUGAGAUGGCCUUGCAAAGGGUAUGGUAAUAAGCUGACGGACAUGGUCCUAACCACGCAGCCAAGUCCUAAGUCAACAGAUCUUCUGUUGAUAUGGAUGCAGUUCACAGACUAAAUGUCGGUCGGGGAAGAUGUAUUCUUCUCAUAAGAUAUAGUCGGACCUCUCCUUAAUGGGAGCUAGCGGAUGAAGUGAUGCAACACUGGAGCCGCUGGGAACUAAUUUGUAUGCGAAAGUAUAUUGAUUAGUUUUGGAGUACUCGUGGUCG; settings: 37 °C
Classification field: Fulfilled = self-splicing fitness (ln) at or over -1; Not fulfilled = self-splicing fitness (ln) under -1.

Solved cases below.
> print(dat)
         sequence.entry          class
1  CAGAAGCAAUAUUACGAAUU  Not fulfilled
2  UUGCAGCAAUAUUACGUUCA      Fulfilled
3  UGCGAGCAAUAUUACGUUAA  Not fulfilled
4  UGCCAGCAAUAUUACGGGAC  Not fulfilled
5  CACGAGCAAUAUUACGACGG      Fulfilled

Ask: Is self-splicing fitness (ln) at least -1? Consider AUCAAGCAAUAUUACGCCCC
Result: Fulfilled

Ask: Assess whether reported self-splicing fitness (ln) for CUUAAGCAAUAUUACGCGCU sits at -1 or higher.
Result: Not fulfilled

Ask: Is self-splicing fitness (ln) at least -1? Consider CUACAGCAAUAUUACGCACU
Result: Not fulfilled

Ask: Does the sequence GCAGAGCAAUAUUACGUGGC have recorded self-splicing fitness (ln) that is -1 or more?
Result: Not fulfilled

Ask: Given the entry UAAGAGCAAUAUUACGUUGU , answer whether its self-splicing fitness (ln) meets or surpasses -1.
Result: Fulfilled
